The origin of these recorded values is paper PMC12586182.

- Tested Target: FGFR3 (Homo sapiens)
- Sequence (P22607 23-806): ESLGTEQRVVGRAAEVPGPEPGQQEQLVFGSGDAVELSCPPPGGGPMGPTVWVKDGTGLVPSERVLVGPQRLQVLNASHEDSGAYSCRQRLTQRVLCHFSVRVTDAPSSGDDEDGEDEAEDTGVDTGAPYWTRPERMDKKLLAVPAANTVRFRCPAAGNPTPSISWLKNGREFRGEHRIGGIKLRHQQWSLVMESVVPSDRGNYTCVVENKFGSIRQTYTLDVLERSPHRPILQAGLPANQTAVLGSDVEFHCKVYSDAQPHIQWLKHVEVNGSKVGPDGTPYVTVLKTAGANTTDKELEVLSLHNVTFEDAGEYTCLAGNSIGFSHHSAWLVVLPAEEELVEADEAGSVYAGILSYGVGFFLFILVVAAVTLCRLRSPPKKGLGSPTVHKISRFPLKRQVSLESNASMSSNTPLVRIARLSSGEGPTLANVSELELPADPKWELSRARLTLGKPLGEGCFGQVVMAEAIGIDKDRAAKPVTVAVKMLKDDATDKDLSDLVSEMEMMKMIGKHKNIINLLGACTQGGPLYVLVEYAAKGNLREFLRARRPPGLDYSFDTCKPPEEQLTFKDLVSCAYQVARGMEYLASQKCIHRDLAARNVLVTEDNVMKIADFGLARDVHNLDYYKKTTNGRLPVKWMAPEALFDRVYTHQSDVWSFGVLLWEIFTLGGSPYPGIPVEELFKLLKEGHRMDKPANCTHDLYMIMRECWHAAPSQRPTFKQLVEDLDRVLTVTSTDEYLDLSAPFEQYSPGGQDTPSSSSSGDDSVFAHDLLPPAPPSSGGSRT
- Assay Details: Kinase enzyme activity assay (mobility shift assay, Carna)
- Run Conditions: FGFR3; 1 µmol/L of BTK inhibitor
Each entry gets false (0) if its Percentage inhibition of kinase enzyme activity stays under 80%, and true (1) if its Percentage inhibition of kinase enzyme activity is 80% or above.

Some solved entries appear below for comparison.
structure_string=O=C(c1ccc(Oc2ccccc2)cc1Cl)c1c[nH]c2ncnc(N[C@@H]3CC[C@@H](CO)OC3)c12 group="true (1)"
structure_string=C=CC(=O)N1CCC([C@@H]2CCNc3c(C(N)=O)c(-c4ccc(Oc5ccccc5)cc4)nn32)CC1 group="false (0)"
structure_string=COc1ccc(F)cc1C(=O)NCc1ccc(-c2nn([C@@H](C)C(F)(F)F)c(N)c2C(N)=O)cc1 group="false (0)"

Please examine the following record next.
Problem: Would you say CC#CC(=O)N1CCC[C@H]1c1nc(-c2ccc(C(=O)Nc3ccccn3)cc2)c2c(N)nccn12 shows Percentage inhibition of kinase enzyme activity at minimum 80%?
Solution: false (0)
